This collection of values is drawn from ChEMBL document CHEMBL4627259.

assay: Toxicity in rat assessed as NOAEL administered as repeated dose for 1 month; details: in vivo
quantity measured: NOAEL at 1 month (mg/kg)
Enter your answer as a number in mg/kg; do not include the unit.

Ask: Reported NOAEL at 1 month, compound Cc1ncn(C)c1-c1nnc([C@@H]2C[C@H](N(C)C(=O)c3cccc(C(F)(F)F)c3)CCO2)[nH]1 : ____
Result: 200

----------
target: Probable G-protein coupled receptor 142 (Homo sapiens) (UniProt Q7Z601); experiment: Agonist activity at human GPR142 receptor expressed in HEK293 cells assessed as accumulation of inositol phosphate at 30 uM to 1 nM incubated for 1 hr followed by IP1-d2 addition by HTRF assay relative to control; type: functional, cell-based
Sequence (Q7Z601 whole entry): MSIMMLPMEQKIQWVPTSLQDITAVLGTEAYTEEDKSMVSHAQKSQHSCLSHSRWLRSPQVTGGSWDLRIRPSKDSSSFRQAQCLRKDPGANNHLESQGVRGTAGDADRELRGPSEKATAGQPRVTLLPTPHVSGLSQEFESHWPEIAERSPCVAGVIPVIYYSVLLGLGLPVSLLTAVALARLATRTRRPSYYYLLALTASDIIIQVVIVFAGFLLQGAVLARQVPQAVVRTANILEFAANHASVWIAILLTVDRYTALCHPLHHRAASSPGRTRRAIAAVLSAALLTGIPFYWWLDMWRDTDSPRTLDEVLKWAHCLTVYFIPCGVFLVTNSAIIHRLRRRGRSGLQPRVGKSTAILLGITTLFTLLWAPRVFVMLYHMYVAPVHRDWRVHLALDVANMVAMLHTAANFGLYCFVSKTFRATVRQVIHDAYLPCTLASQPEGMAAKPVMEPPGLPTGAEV
Catalogue of compounds with associated Emax
// units = %; emit number, no label

Known Emax results, listed for orientation:
{"smiles structure": "Cc1ncn(CC(F)(F)F)c1NC(=O)[C@H]1CCC[C@@H](N(C)C(=O)c2cccc(C(F)(F)F)c2)C1", "Emax / %": 114}
{"smiles structure": "Cc1ncn(CCN2CCOCC2)c1NC(=O)[C@H]1CCC[C@@H](N(C)C(=O)c2cccc(C(F)(F)F)c2)C1", "Emax / %": 97}
{"smiles structure": "Cc1nc[nH]c1-c1nnc([C@H]2CCC[C@@H](N(C)C(=O)c3cccc(C(F)(F)F)c3)C2)[nH]1", "Emax / %": 101}

Let's switch to this compound now.
Ask: Enter reported Emax observed with Probable G-protein coupled receptor 142 (Homo sapiens) (UniProt Q7Z601) for CN(C(=O)c1cccc(C(F)(F)F)c1)[C@@H]1CCO[C@H](c2nnc(-c3cnc4n3CCOC4)[nH]2)C1
Result: 108
